# maps each entry to its mean percentage of viable cells ± SD
- Test system: AGS cell lines (human gastric adenocarcinoma)
- assayMethodText: MTT reduction cytotoxicity assay
- Type: cell-based
- testContext: 20 μg/mL, 24 h
Write the numeric value and append its unit.

// below: answered molecules
## Task Return reported mean percentage of viable cells ± SD; argument: CC1CC(=O)OC(c2ccccc2)C1I (mixture of isomers) [10b]
## Result 14 ± 0.08%

## Task And the next one, CC1CC(=O)OC(c2ccc(F)cc2)C1Cl (centres unmarked) [5c] ?
## Result 21 ± 0.08%

## Task And the next one, CC1CC(=O)OC(c2cccc3ccccc23)C1Cl (mixture of isomers) [6a] ?
## Result 8 ± 0.09%

## Task And the next one, CC1CC(=O)OC(c2ccc(F)cc2)C1I (mixture of isomers) [10c] ?
## Result 10 ± 0.07%

Continue with the molecule presented below.
## Task Return reported mean percentage of viable cells ± SD; argument: CC1CC(=O)OC(c2ccccc2)C1Cl (mixture of isomers) [6b]
## Result 14 ± 0.07%

* * *

# maps each entry to its mean percentage of viable cells ± SD
- Test system: AGS cell lines (human gastric adenocarcinoma)
- assayMethodText: MTT reduction cytotoxicity assay
- Assay type: cell-based
- testContext: 20 μg/mL, 24 h
Write it as a number; the unit % goes unstated.

// below: answered compounds
## Task Return reported mean percentage of viable cells ± SD; argument: CC1CC(=O)OC(c2ccccc2)C1Br (mixture of isomers) [8b]
## Result 17

## Task And the next one, CC1CC(=O)OC(c2ccc(F)cc2)C1Br (stereo not drawn) [7c] ?
## Result 18

## Task And the next one, CC1CC(=O)OC(c2ccc(F)cc2)C1Br (mixture of isomers) [8c] ?
## Result 11

## Task And the next one, CC1CC(=O)OC(c2ccc(F)cc2)C1I (stereo not drawn) [9c] ?
## Result 18

Others:
## Task Return reported mean percentage of viable cells ± SD; argument: CC1CC(=O)OC(c2ccc(F)cc2)C1Cl (mixture of isomers) [6c]
## Result 14

## Task And the next one, CC1CC(=O)OC(c2cccc3ccccc23)C1Br (mixture of isomers) [8a] ?
## Result 17

* * *

- System: AGS cell lines (human gastric adenocarcinoma)
- assayMethodText: MTT reduction cytotoxicity assay
- Assay type: cell-based
- testContext: 5 μg/mL, 24 h
# maps each entry to its mean percentage of viable cells ± SD
Write it as a number; the unit % goes unstated.

// below: answered molecules
## Task Any idea what mean percentage of viable cells ± SD came out for CC1CC(=O)OC(c2ccc(F)cc2)C1Br (mixture of isomers) [8c] on AGS cell lines (human gastric adenocarcinoma)?
## Result 43

## Task And the next one, CC1CC(=O)OC(c2ccc(F)cc2)C1I (mixture of isomers) [10c] ?
## Result 20

## Task And the next one, CC1CC(=O)OC(c2cccc3ccccc23)C1Cl (mixture of isomers) ?
## Result 23

Others:
## Task Any idea what mean percentage of viable cells ± SD came out for CC1CC(=O)OC(c2cccc3ccccc23)C1Br (mixture of isomers) on AGS cell lines (human gastric adenocarcinoma)?
## Result 39

## Task And the next one, CC1CC(=O)OC(c2ccccc2)C1Cl (mixture of isomers) ?
## Result 28

## Task And the next one, CC1CC(=O)OC(c2ccc(F)cc2)C1Br (centres unmarked) [7c] ?
## Result 42

## Task And the next one, CC1CC(=O)OC(c2ccc(F)cc2)C1Cl (mixture of isomers) [6c] ?
## Result 28

## Task And the next one, CC1CC(=O)OC(c2ccccc2)C1I (mixture of isomers) [10b] ?
## Result 37

## Task And the next one, CC1CC(=O)OC(c2ccccc2)C1Br (mixture of isomers) ?
## Result 31

## Task And the next one, CC1CC(=O)OC(c2ccc(F)cc2)C1Cl (centres unmarked) [5c] ?
## Result 44

## Task And the next one, CC1CC(=O)OC(c2ccc(F)cc2)C1I (centres unmarked) [9c] ?
## Result 35
